Experiment: BSK_4H_Eotaxin3: BioMAP Diversity Plus: 4H Assay for Eotaxin 3 Biomarker Activity (AID 2283000)
Experimental parameters: primary human endothelial cells (HUVEC); actives raise or lower the signal
Experimental: BSK_4H is a cell-based, multiplexed-readout assay that uses umbilical vein endothelium, a human vascular primary cell, with measurements taken at 24 hours after chemical dosing in a 96-well plate.BSK_4H_Eotaxin3 is an assay component measured in the BSK_4H assay. It measures Eotaxin-3 antibody related to regulation of gene expression using ELISA technology.Data from the assay component BSK_4H_Eotaxin3 was analyzed into 1 assay endpoint. […]
The source made the active and inactive calls. The calls were made as follows: active = hit-call score of the fitted dose curve at least 0.9, where 1 is the maximum; inactive = score below 0.9.
Entry note: the call must match one of active, inactive

# Compound, Assigned category
rows = [
    ("CC(C)(c1cc(Cl)c(O)c(Cl)c1)c1cc(Cl)c(O)c(Cl)c1", "active"),
]

Look up the recorded call for "CCc1cc(C)cc(CC)c1-c1c(OC(=O)C(C)(C)C)n2n(c1=O)CCOCC2" in this test.
active

Look up the recorded call for CC(C)(C)C(O)C(Oc1ccc(-c2ccccc2)cc1)n1cncn1 (stereo unspecified) in this test.
active

I would be grateful if you could indicate the recorded call for "N#CCCCCC#N" .
inactive

----------
Read-out: Vascular cell adhesion molecule 1 (VCAM1), VCAM1 (gene 7412)
Experiment: BSK_CASM3C_VCAM1: BioMAP Diversity Plus: CASM3C Assay for Vascular cell adhesion molecule 1 (VCAM1) Biomarker Activity (AID 2283055);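 also: VCAM-1 protein level quantified by ELISA on the cells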
Experimental parameters: primary human coronary artery smooth muscle cells; actives raise or lower the signal
Active and inactive are the calls of the source. Rule for the calls: active = hit-call score of the fitted dose curve at least 0.9, where 1 is the maximum; inactive = score below 0.9.
Entry note: the call must match one of active, inactive

# Smiles notation, Assigned category
data = [
    ("Clc1ccc(-c2ccccc2)cc1", "inactive"),
]

Field: outcome | Entry: "COCC(=O)N(c1c(C)cccc1C)N1CCOC1=O"
inactive

Which result was noted for this molecule in the test: "CC(C)(c1cc(Cl)c(O)c(Cl)c1)c1cc(Cl)c(O)c(Cl)c1"
active

What call does the record list for "Oc1cc(Cl)ccc1Cl" ?
inactive

Lab log entry: "C=CCN(CC=C)C(=O)C(Cl)Cl" — outcome as called in the assay?
inactive

----------
Read-out: Human Leukocyte Antigen - DR isotype (HLADR), HLA-DRA (gene 3122)
Experiment: BSK_CASM3C_HLADR: BioMAP Diversity Plus: CASM3C Assay for Human Leukocyte Antigen - DR isotype (HLADR) Biomarker Activity (AID 2283043);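 also: cell-surface HLA-DR protein level quantified by ELISA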
Experimental parameters: primary human coronary artery smooth muscle cells; actives raise or lower the signal
Active and inactive are the calls of the source. The calls were made as follows: active = hit-call score of the fitted dose curve at least 0.9, where 1 is the maximum; inactive = score below 0.9.
Use one of these outcomes when replying: active, inactive

# Smiles notation, Assigned category
rows = [
    ("CC(C)(C)C(=O)CCl", "active"),
    ("CCCOC(=O)c1ccccc1C(=O)OCCC", "inactive"),
    ("C=CCN(CC=C)C(=O)C(Cl)Cl", "inactive"),
    ("O=C(CCl)c1ccccc1", "active"),
    ("CC(C)(c1cc(Cl)c(O)c(Cl)c1)c1cc(Cl)c(O)c(Cl)c1", "active"),
    ("c1ccc(Nc2ccc3ccccc3c2)cc1", "inactive"),
]

How did this test come out for "CCc1cc(C)cc(CC)c1-c1c(OC(=O)C(C)(C)C)n2n(c1=O)CCOCC2" ?
active

Status in this test for "Clc1ccc(-c2ccccc2)cc1" ?
inactive

----------
Tested system: Cellular tumor antigen p53 (Homo sapiens)
Experiment: TOX21_p53_BLA_p5_ratio: Tox21 HCT-116 p53 Agonism Beta-lactamase Assay, Ratio, Phase 5 (AID 2283599)
Inconclusive results are not listed. Calls of active or inactive are those of the source. How the source made its calls: active means hit-call score of the fitted dose curve at least 0.9, where 1 is the maximum; inconclusive means response in the unintended direction; inactive means score below 0.9.
Use one of these outcomes when replying: Yes for active, No for inactive

# Molecule, Assigned category
data = [
    ("Cc1cc(C(C)(C)c2cc(C)c(O)c(C)c2)cc(C)c1O", "Yes"),
    ("COCC(=O)N(c1c(C)cccc1C)N1CCOC1=O", "No"),
    ("CCOP(=S)(OCC)SC(CCl)N1C(=O)c2ccccc2C1=O (stereo not given)", "No"),
]

Each molecule tested received a call. Report the one for "COc1ccc2c(c1OC)C(=O)O[C@@H]2[C@H]1c2cc3c(cc2CCN1C)OCO3" .
No

Hello, I am checking results. What call was entered for "Nc1cc(Cl)cc(Cl)c1" ?
No

Data provenance is PubChem BioAssay (EPA / NIEHS).
